Values were extracted from the supplement of paper PMC10037445.

Measured NF-kB SEAP reporter activity of individual entries
System: RAW-Dual
ASSAY_REMARKS: NF-kB SEAP reporter activity, fold change vs agonist alone; cytotoxicity flag (confluency mask): not cytotoxic; higher = enhanced NF-kB activity
CONDITION_LABEL: agonist: Pam2CSK4 (TLR2/6) 0.1 ug/mL
Over roughly 2,900 compounds, “NF-kB SEAP reporter activity, fold change vs agonist alone” has its median near 0.99; the highest 2% begin near 2.6. This excerpt belongs to a sample that is enriched for the highest values.

{"columns": ["COMPOUND", "STUDY_SYSTEM", "NF-kB SEAP reporter activity"],
 "data": [
  ["CCOC(=O)C1=Cc2ccc(C(F)(F)C(F)(F)F)cc2N=C(N)C1 (library stock concentration (final ~1000-fold dilution): .1 mM)", "RAW-Dual", 1.09],
  ["CCCN(CCC)C(=O)C1=Cc2ccc(-c3ccc(C(=O)N4CCCC4)cc3)cc2N=C(N)C1 (library stock concentration (final ~1000-fold dilution): 1 mM)", "RAW-Dual", 1.16],
  ["CCNC(=O)[C@]12CCC(C)(C)C[C@H]1[C@H]1C(=O)C=C3[C@@]4(C)C=C(C#N)C(=O)C(C)(C)[C@@H]4CC[C@@]3(C)[C@]1(C)CC2 (library stock concentration (final ~1000-fold dilution): 10 mM)", "RAW-Dual", 0.0804],
  ["CCc1ccc(NC(=O)Nc2c[nH]c3ccccc23)cc1 (library stock concentration (final ~1000-fold dilution): 1 mM)", "RAW-Dual", 0.417],
  ["CC#CC(=O)N1CCC(n2c(=O)n(-c3ccc(Oc4ccccc4)cc3)c3c(N)ncnc32)C1.Cl (stereo unspecified) (library stock concentration (final ~1000-fold dilution): 10 mM)", "RAW-Dual", 0.378],
  ["CNc1ccc([N+](=O)[O-])cc1-n1cnc(-c2ccc(C(F)(F)F)cc2)c1 (library stock concentration (final ~1000-fold dilution): 10 mM)", "RAW-Dual", 0.926],
  ["Nc1ccc(C(=O)Nc2cccc(-c3nc(N4CCOCC4)c4oc5ncccc5c4n3)c2)cn1 (library stock concentration (final ~1000-fold dilution): 10 mM)", "RAW-Dual", 0.638],
  ["CCn1c(-c2nonc2N)nc2cnc(Oc3cccc(NC(=O)c4ccc(OCCN5CCOCC5)cc4)c3)cc21.Cl (library stock concentration (final ~1000-fold dilution): 10 mM)", "RAW-Dual", 1.12],
  ["O=C(NO)c1ccc(CC(=O)N(CCO)c2ccccc2)cc1 (library stock concentration (final ~1000-fold dilution): 10 mM)", "RAW-Dual", 0.801],
  ["Oc1cccc(-c2nc(N3CCOCC3)c3oc4ncccc4c3n2)c1 (library stock concentration (final ~1000-fold dilution): 10 mM)", "RAW-Dual", 0.849],
  ["COc1cc(C(=O)N(CCCc2ccccc2)Cc2ccc(CC(=O)O)cc2)cc(OC)c1C (library stock concentration (final ~1000-fold dilution): 10 mM)", "RAW-Dual", 0.823]
]}

* * *

Parameter NF-kB SEAP reporter activity: see the listing below.
System: RAW-Dual
ASSAY_REMARKS: NF-kB SEAP reporter activity, fold change vs agonist alone; higher = enhanced NF-kB activity
CONDITION_LABEL: library stock concentration (final ~1000-fold dilution): 10 mM; cytotoxicity flag (confluency mask): cytotoxic (confluency <70% of control); agonist: MPLA (TLR4) […]
Over roughly 2,900 compounds, “NF-kB SEAP reporter activity, fold change vs agonist alone” has its median near 0.99; the highest 2% begin near 2.6. Many of the other results were omitted from the sample, so the highest values are more common in it than they were.

{"columns": ["COMPOUND", "NF-kB SEAP reporter activity"],
 "data": [
  ["COc1ccc(N2C(=O)/C(=C/c3ccc([N+](=O)[O-])s3)SC2=S)cc1", 1.63],
  ["COc1cc2c(Oc3ccc4[nH]c(C)cc4c3F)ncnc2cc1OCCCN1CCCC1.O=C(O)/C=C\\C(=O)O", 2.65],
  ["COc1cc2c(Oc3ccc4[nH]c(C)cc4c3F)ccnc2cc1OCC1(N)CC1.Cl.Cl", 1.89],
  ["Cc1ccc(NC(=O)c2ccc(CN3CCC(N(C)C)C3)c(C(F)(F)F)c2)cc1Nc1nccc(-c2cncnc2)n1 (stereo not given)", 1.36],
  ["COc1cc2c(Oc3ccc4[nH]c(C)cc4c3F)ncnc2cc1OCCCN1CCCC1", 1.96],
  ["CC(C)c1cnn2c(NCc3ccccc3)cc(NCCCCCCN)nc12.Cl", 0.882],
  ["CNCCC(Oc1cccc2ccccc12)c1cccs1 (stereo not given)", 1.98],
  ["CCC(N)CNc1ccnc(-c2cc(-c3cnn(C)c3)ccc2O)n1.Cl.Cl (stereo not given)", 0.254],
  ["CS(=O)(=O)O.O=C(Nc1cccc(Cl)c1)Nc1ncc(CCNc2ncnc3ccsc23)s1", 0.512],
  ["O=C(Nc1ccc2[nH]nc(-c3ccc4[nH]ccc4c3)c2c1)c1c(Cl)cccc1Cl", 0.704]
]}
